Source of measurements: patent US6906098B2

# Test system: Plasmodium falciparum chloroquine-resistant strain W2
# TEST DETAILS: microbe, parasite or virus in culture
# Type: cell-based
# MEASUREMENT CONDITIONS: growth inhibition, chloroquine-resistant strain W2, 66 h incubation
Strain W2 IC50: recorded values
Quote the value and follow it with the unit of measurement.

# COMPOUND, Strain W2 IC50
measured = [
    ("CCCNC(=O)CCC(C)[C@H]1CCC2C3C(C[C@H](OC(C)=O)[C@@]21C)[C@@]1(C)CCC2(C[C@H]1C[C@H]3OC(C)=O)OOC1(CCC(c3ccccc3)CC1)OO2 (single isomer, unassigned) [Compound 1C48]", "6.72 ng/mL"),
    ("CCNC(=O)CCC(C)[C@H]1CCC2C3C(C[C@H](OC(C)=O)[C@@]21C)[C@@]1(C)CCC2(C[C@H]1C[C@H]3OC(C)=O)OOC1(CCC(c3ccccc3)CC1)OO2 (single isomer, unassigned) [Compound 1C47]", "5.87 ng/mL"),
    ("CCNC(=O)CCC(C)[C@H]1CCC2C3C(C[C@H](OC(C)=O)[C@@]21C)[C@@]1(C)CCC2(C[C@H]1C[C@H]3OC(C)=O)OOC1(CCC(C)CC1)OO2 (some centres unmarked) [23/1C32]", "6.57 ng/mL"),
    ("CCCNC(=O)CCC(C)[C@H]1CCC2C3C(C[C@H](OC(C)=O)[C@@]21C)[C@@]1(C)CCC2(C[C@H]1C[C@H]3OC(C)=O)OOC1(CCC(C)CC1)OO2 (some centres unmarked) [20/1C29]", "2.58 ng/mL"),
]

Alright, here's another compound for you.
In: Using the record for CNC(=O)CCC(C)[C@H]1CCC2C3C(C[C@H](OC(C)=O)[C@@]21C)[C@@]1(C)CCC2(C[C@H]1C[C@H]3OC(C)=O)OOC1(CCC(c3ccccc3)CC1)OO2 (single isomer, unassigned) [Compound 1C51] , report its Strain W2 IC50.
Out: 54.72 ng/mL
